Test: Amorphous solubility by slow addition from organic stock, UV/scattering detection
Assay type: physicochemical
Settings: pH 6.5 phosphate-buffered saline (PBS), aqueous buffer, kinetic from dmso stock; pH 6.5 PBS
Description: Solubility: Generally, the solubility of an amorphous form is higher than that of the corresponding crystal form, due to the lack of crystalline lattice forces in the amorphous state. […] When the amorphous solubility is reached, a drug-rich phase forms which typically scatters light (e.g., liquid-liquid phase separation or LLPS), which can be detected by scattering of UV/Visible light and/or by dynamic light scattering (DLS). […]
quantity: solubility

| molecule | quantity | readoutValue |
| --- | --- | --- |
| CC(C)(c1ccc(OCc2ccnc(NS(C)(=O)=O)n2)cc1)c1cc(Cl)c(OCCCl)c(C#N)c1 [amorphous form of Compound A] | solubility | > 2.5 µg/mL |

====

Assay: PK study, single PO dose, dogs
Type: in vivo
Conditions: male, Beagle, dog, plasma, 50 mg/kg, PO 50 mg/kg, Suspension A (SDD), read-out: T½ (converted)
Protocol: A single PO dose of Compound A in two different formulations were administered to male Beagle dogs. Mean plasma of Compound A was measured over 24-hour period after administration of Compound A (FIG. 15B) and PK parameters were determined (Table 30).

| cpdSmiles | half-life, h |
| --- | --- |
| CC(C)(c1ccc(OCc2ccnc(NS(C)(=O)=O)n2)cc1)c1cc(Cl)c(OCCCl)c(C#N)c1 | 16.2 |

====

assay: PK study, single PO dose, dogs; format: in vivo; conditions: male, Beagle, dog, plasma, 100 mg/kg, PO 100 mg/kg, Suspension A (SDD)
quantity: AUC(0-t) (µg·h/mL)

| compound | readoutValue |
| --- | --- |
| CC(C)(c1ccc(OCc2ccnc(NS(C)(=O)=O)n2)cc1)c1cc(Cl)c(OCCCl)c(C#N)c1 [Compound A] | 1450 |

====

test: PK study, single PO dose, mice; type: in vivo; details: male, CD-1, mouse, plasma, 10 mg/kg, male CD-1 mice, PO 10 mg/kg, Suspension A (SDD)

| cpdSmiles | unitsSymbol | Cmax |
| --- | --- | --- |
| CC(C)(c1ccc(OCc2ccnc(NS(C)(=O)=O)n2)cc1)c1cc(Cl)c(OCCCl)c(C#N)c1 | ng/mL | 14300 |

====

experiment: Phase I clinical study, PK; format: in vivo, human; conditions: male, human, in vivo, po, 200 mg/day, patients, 200 mg/day oral SDD with HPMCAS-H, Day 28, N 3; read-out: AUC0-24

| cpdSmiles | AUC(0-t) (µg·h/mL) |
| --- | --- |
| CC(C)(c1ccc(OCc2ccnc(NS(C)(=O)=O)n2)cc1)c1cc(Cl)c(OCCCl)c(C#N)c1 | 147 |

====

assay: PK study, single PO dose, mice; type: in vivo; conditions: male, CD-1, mouse, plasma, 90 mg/kg, male CD-1 mice, PO 90 mg/kg, Suspension A (SDD)
quantity: AUC(0-inf) (µg·h/mL)

| cpdSmiles | unitsSymbol | readoutValue |
| --- | --- | --- |
| CC(C)(c1ccc(OCc2ccnc(NS(C)(=O)=O)n2)cc1)c1cc(Cl)c(OCCCl)c(C#N)c1 | µg·h/mL | 1700 |

====

assay: PK study, single PO dose, mice; format: in vivo; conditions: male, CD-1, mouse, plasma, 30 mg/kg, male CD-1 mice, PO 30 mg/kg, Solution (9% DMSO, 9% NMP, 27% solutol, 55% PEG400)

| cpdSmiles | AUC(0-t) [µg·h/mL] |
| --- | --- |
| CC(C)(c1ccc(OCc2ccnc(NS(C)(=O)=O)n2)cc1)c1cc(Cl)c(OCCCl)c(C#N)c1 | 336 |
